MEASUREMENT TARGET: Cys12 of the KRAS 4B G12C protein (Homo sapiens, UniProt P01116, G12C)
Construct: This protein contained 188 amino acids in total, including an N-terminal 6-Histidine tag; made in house; host or cells: E. coli BL21
ASSAY EXPLANATION: In vitro covalent adduct formation (CAF) assay, LC-MS intact mass
Type: binding
STATED CONDITIONS: 10 uM compound, 60 min

{"columns": ["COMPOUND", "MEASUREMENT TARGET", "U", "% CAF 10 uM @ 60 min"],
 "data": [
  ["[2H]C([2H])([2H])OC[C@H]1CSc2c(-c3ccc(F)cc3F)c(C(F)(F)F)cc3c(N4C[C@@H](C)N(C(=O)C=C)[C@@H](C)C4)nc(=O)n1c23 (atropisomer, axis not shown) [Example 1424]", "Cys12 of the KRAS 4B G12C protein (Homo sapiens, UniProt P01116, G12C)", "%", 95.4],
  ["C=CC(=O)N1[C@H](C)CN(c2nc(=O)n3c4c(c(-c5ccc(F)cc5F)c(C(F)(F)F)cc24)SC[C@@H]3CN2C[C@@H]3C[C@H]2CO3)C[C@@H]1C (atropisomer, axis not shown) [Example 1301]", "Cys12 of the KRAS 4B G12C protein (Homo sapiens, UniProt P01116, G12C)", "%", 96.4],
  ["C=CC(=O)N1CCN(c2nc(=O)n3c4c(c(-c5cc(Cl)c(F)cc5F)c(C(F)(F)F)cc24)SC[C@@H]3COCOC)CC1 (atropisomer, axis not shown) [Example 1365]", "Cys12 of the KRAS 4B G12C protein (Homo sapiens, UniProt P01116, G12C)", "%", 83.7],
  ["C=CC(=O)N1CCN(c2nc(=O)n3c4c(c(-c5cc(Cl)c(F)cc5F)c(C(F)(F)F)cc24)SC[C@@H]3CN2CCN(CC)CC2)CC1 (atropisomer, axis not shown) [Example 1338]", "Cys12 of the KRAS 4B G12C protein (Homo sapiens, UniProt P01116, G12C)", "%", 99],
  ["C=CC(=O)N1CCN(c2nc(=O)n3c4c(c(-c5c(F)cccc5F)c(C(F)(F)F)cc24)SC[C@@H]3COC)CC1 [Example 1377]", "Cys12 of the KRAS 4B G12C protein (Homo sapiens, UniProt P01116, G12C)", "%", 95.5],
  ["C=CC(=O)N1[C@H](C)CN(c2nc(=O)n3c4c(c(-c5ccc(F)cc5F)c(C(F)(F)F)cc24)SC[C@@H]3COCC)C[C@@H]1C [Example 1414]", "Cys12 of the KRAS 4B G12C protein (Homo sapiens, UniProt P01116, G12C)", "%", 91.8],
  ["C=CC(=O)N1[C@H](C)CN(c2nc(=O)n3c4c(c(-c5cc(O)c(F)cc5F)c(C(F)(F)F)cc24)SC[C@@H]3COC)C[C@@H]1C [Example 1444]", "Cys12 of the KRAS 4B G12C protein (Homo sapiens, UniProt P01116, G12C)", "%", 90],
  ["C=CC(=O)N1[C@H](C)CN(c2nc(=O)n3c4c(c(-c5ccc(F)cc5F)c(C(F)(F)F)cc24)SC[C@@H]3C)C[C@@H]1C [Example 1427]", "Cys12 of the KRAS 4B G12C protein (Homo sapiens, UniProt P01116, G12C)", "%", 95],
  ["[2H]C([2H])([2H])OC[C@H]1CSc2c(-c3ccc(F)cc3)c(C(F)(F)F)cc3c(N4C[C@@H](C)N(C(=O)C=C)[C@@H](C)C4)nc(=O)n1c23 [Example 1413]", "Cys12 of the KRAS 4B G12C protein (Homo sapiens, UniProt P01116, G12C)", "%", 95.1],
  ["C=CC(=O)N1[C@H](C)CN(c2nc(=O)n3c4c(c(-c5cc(Br)c(F)cc5F)c(C(F)(F)F)cc24)SC[C@@H]3COC)C[C@@H]1C [Example 1443]", "Cys12 of the KRAS 4B G12C protein (Homo sapiens, UniProt P01116, G12C)", "%", 85],
  ["C=CC(=O)N1[C@H](C)CN(c2nc(=O)n3c4c(c(-c5ccc(F)cc5)c(C(F)(F)F)cc24)SC[C@@H](N2CCCC2=O)C3)C[C@@H]1C [Example 1450]", "Cys12 of the KRAS 4B G12C protein (Homo sapiens, UniProt P01116, G12C)", "%", 96]
]}

----------
MEASUREMENT TARGET: K-Ras G12C (Homo sapiens, UniProt P01116, G12C)
Construct: This protein contained 188 amino acids in total, including an N-terminal 6-Histidine tag; made in house; host or cells: E. coli BL21
ASSAY EXPLANATION: CAF assay (% CAF; method in Example 7, not in this part)
Format: binding
STATED CONDITIONS: 10 uM compound, 1 h incubation
Readings of % CAF @ 10 uM, 1h for the listed molecules

{"columns": ["MOLECULE", "% CAF @ 10 uM, 1h"],
 "data": [
  ["C=CC(=O)N1C[C@H](C)N(c2nc(=O)n3c4c(c(-c5ccc(F)cc5F)c(C(F)(F)F)cc24)SC[C@@H]3CN2CCN(C3CC3)CC2)C[C@H]1C (single isomer, unassigned) [Example 580]", "91.5%"],
  ["C=CC(=O)N1CCN(c2nc(=O)n3c4c(c(-c5ccc(F)cc5Cl)c(Cl)cc24)SCC3)[C@@H](C)C1 [Example 427]", "63.5%"],
  ["C=CC(=O)N1C[C@H](C)N(c2nc(=O)n3c4c(c(-c5cc(F)c(F)cc5F)c(Cl)cc24)SC[C@@H]3CN2CCC3(CC2)COC3)C[C@H]1C (atropisomer, axis not shown) [Example 485]", "45%"],
  ["C=CC(=O)N1CCN(c2nc(=O)n3c4c(c(-c5ccc(F)cc5F)c(C(F)(F)F)cc24)SCCC3)[C@@H](C)C1 [Example 450]", "61%"],
  ["C=CC(=O)N1CCN(c2nc(=O)n3c4c(c(-c5cc(Cl)c(F)cc5F)c(Cl)cc24)SC[C@@H](OC)C3)CC1 [Example 543]", "97%"],
  ["C=CC(=O)N1CCN(c2nc(=O)n3c4c(c(-c5cc(Cl)c(F)cc5F)c(Cl)cc24)SC[C@@H]3CN2CCC3(CC2)COC3)[C@@H](C)C1 (atropisomer, axis not shown) [Example 482]", "90%"],
  ["C=CC(=O)N1CCN(c2nc(=O)n3c4c(c(-c5ccc(F)cc5F)c(Cl)cc24)SC[C@@H](OC)C3)CC1 [Example 504]", "96%"],
  ["C=CC(=O)N1CCN(c2nc(=O)n3c4c(c(-c5ccc(F)cc5F)c(Cl)cc24)SC[C@@H]3CN2CCN(C3CC3)CC2)[C@@H](C)C1 [Example 422]", "84.2%"],
  ["C=CC(=O)N1CCN(c2nc(=O)n3c4c(c(-c5cc(Cl)c(F)cc5F)c(C(F)(F)F)cc24)SC[C@@H](OC)C3)CC1 [Example 582]", "88%"],
  ["C=CC(=O)N1CCN(c2nc(=O)n3c4c(c(-c5cc(Cl)c(F)cc5F)c(Cl)cc24)SC[C@@H]3COCOC)[C@@H](C)C1 [Example 446]", "38%"],
  ["C=CC(=O)N1[C@H](C)CN(c2nc(=O)n3c4c(c(-c5ccc(F)cc5)c(C(F)(F)F)cc24)SC[C@H](OC)C3)C[C@@H]1C [Example 584]", "97%"],
  ["C=CC(=O)N1CCN(c2nc(=O)n3c4c(c(-c5cc(Cl)c(F)cc5F)c(Cl)cc24)SC[C@@H]3CC2CCN(C3COC3)CC2)[C@@H](C)C1 [Example 426]", "82.8%"]
]}

----------
MEASUREMENT TARGET: Cys12 of the KRAS 4B G12C protein (Homo sapiens, UniProt P01116, G12C)
Construct: This protein contained 188 amino acids in total, including an N-terminal 6-Histidine tag; made in house; host or cells: E. coli BL21
ASSAY EXPLANATION: In vitro covalent adduct formation (CAF) assay, LC-MS intact mass
Assay type: binding
STATED CONDITIONS: 10 μM compound, after 1 hour
Experimental: This Example provides a protocol for assessing covalent adduct formation (CAF) between the compounds of the present application and KRAS. In vitro covalent adduct formation assay: Covalent adduct formation (CAF) reactions between Cys12 of the KRAS 4B G12C protein and some of the compounds of Tables 1 to 4 were measured in vitro using liquid chromatography-mass spectrometry (LC-MS). Recombinant Human KRAS 4B protein containing the G12C mutation was used in compound screening experiments. […]
Each record is given rule met if its reported CAF (% after 1 hour) is strictly below 70%. Records at or above 70% are given rule not met.

{"columns": ["SMI", "MEASUREMENT TARGET", "CLASS"],
 "data": [
  ["C=C(F)C(=O)N1CCN(c2nc(=O)n3c4c(c(-c5ccc(F)cc5)c(C(F)(F)F)cc24)SC[C@@H](OC)C3)CC1", "Cys12 of the KRAS 4B G12C protein (Homo sapiens, UniProt P01116, G12C)", "rule met"],
  ["C=CC(=O)N1[C@H](C)CN(c2nc(=O)n3c4c(c(-c5ccc(F)cc5)c(C(F)(F)F)cc24)SC[C@@H](NS(C)(=O)=O)C3)C[C@@H]1C", "Cys12 of the KRAS 4B G12C protein (Homo sapiens, UniProt P01116, G12C)", "rule not met"],
  ["C=CC(=O)N1C2COCC1CN(c1nc(=O)n3c4c(c(-c5cc(Cl)c(F)cc5F)c(C(F)(F)F)cc14)SC[C@@H](OC)C3)C2", "Cys12 of the KRAS 4B G12C protein (Homo sapiens, UniProt P01116, G12C)", "rule not met"],
  ["C=CC(=O)N1C[C@H](C)N(c2nc(=O)n3c4c(c(-c5ccc(F)cc5)c(C(F)(F)F)cc24)SC[C@@H](OC)C3)C[C@H]1C", "Cys12 of the KRAS 4B G12C protein (Homo sapiens, UniProt P01116, G12C)", "rule not met"],
  ["C=C(F)C(=O)N1CCN(c2nc(=O)n3c4c(c(-c5ccc(F)cc5F)c(C(F)(F)F)cc24)SC[C@@H](OC)C3)CC1", "Cys12 of the KRAS 4B G12C protein (Homo sapiens, UniProt P01116, G12C)", "rule met"]
]}
